Test: Ex vivo biodistribution in mice bearing LNCaP tumor xenografts
Set-up: species or system mouse (male NOD-scid IL2Rg^null (NSG))
Settings: mouse, heart, iv, 1 h post-injection, mean ± SD; read-out: Heart uptake
# tissue uptake at 1 h per entry
Note: unit %ID/g is implicit; provide only the numeric part.

O=C(O)CCC[C@H](NC(=O)N[C@@H](CCCCNC(=O)[C@H](Cc1c2ccccc2cc2ccccc12)NC(=O)[C@H]1CC[C@H](CNC(=O)[C@H](CCCCNC(=O)c2ccc(F)nc2)NC(=O)CN(CC(=O)O)CC(=O)O)CC1)C(=O)O)C(=O)O [^18F-KL01040]
0.56
O=C(O)CC[C@H](NC(=O)N[C@@H](CCCCNC(=O)[C@H](Cc1c2ccccc2cc2ccccc12)NC(=O)[C@H]1CC[C@H](CNC(=O)[C@H](CCNC(=O)c2ccc(F)nc2)NC(=O)CCC(=O)N(CC(=O)O)CC(=O)O)CC1)C(=O)O)C(=O)O [^18F-KL01120]
2.9

Here is the next item to consider.
Look at this compound and give its reported tissue uptake at 1 h. O=C(O)CCC[C@H](NC(=O)N[C@@H](CCCCNC(=O)[C@H](Cc1c2ccccc2cc2ccccc12)NC(=O)[C@H]1CC[C@H](CNC(=O)CNC(=O)[C@H](CCCCNC(=O)c2ccc(F)nc2)NC(=O)CN(CC(=O)O)CC(=O)O)CC1)C(=O)O)C(=O)O [^18F-KL01130]
0.34
